Numbers sourced from ChEMBL document CHEMBL2203134.

Field: bioavailability. Provide a value for each of the molecules that follow.
# ASSAY_INFO: Oral bioavailability in rat at 2.5 mg/kg
# Type: ADME, organism-based
# CONDITION_SUMMARY: in vivo
The reply should consist of the numeric value with the unit placed after it.

Indicate its recorded bioavailability; the molecule in question is CCC(CC)Nc1cc(C(=O)NC2CC3CCC(C2)N3c2ccc(C(=O)C3CC3)cn2)c(C)cc1C(N)=O (centres undefined)
29%

Entry NC(=O)c1ccc(C(=O)NC2CC3CCC(C2)N3c2ccc(C(=O)C3CC3)cn2)cc1NCC1CC1 (centres undefined) needs its bioavailability filled in; supply it.
41%

State, in one line, measured bioavailability of Cc1cc(C(N)=O)c(NC(C)C)cc1C(=O)NC1CC2CCC(C1)N2c1ccc(C(=O)C2CC2)cn1 (centres undefined)
33%

Supply reported bioavailability belonging to this molecule: NC(=O)c1ccc(C(=O)NC2CC3CCC(C2)N3c2ccc(C(=O)NC3CCCC3)cn2)cc1NCC1CC1 (centres undefined)
0%

Supply measured bioavailability of Cc1cc(C(N)=O)c(NCC2CC2)cc1C(=O)NC1CC2CCC(C1)N2c1ccc(C(=O)C2CC2)cn1 (centres undefined) in your reply.
51%

Query bioavailability for Cc1cc(C(N)=O)c(NC2CCCC2)cc1C(=O)NC1CC2CCC(C1)N2c1ccc(C(=O)C2CC2)cn1 (centres undefined)
28%

Complete the entry with bioavailability for CC[C@H](C)Nc1cc(C(=O)NC2CC3CCC(C2)N3c2ccc(C(=O)C3CC3)cn2)c(C)cc1C(N)=O (some centres undefined)
20%

Give the reported value of bioavailability for this record: COc1cccc(C(=O)NC2CC3CCC(C2)N3c2ccc(C(=O)NCc3ccccc3)cn2)c1C (centres undefined)
4%

Look up bioavailability of CC(=O)c1ccc(N2C3CCC2CC(NC(=O)c2ccc(C(N)=O)c(NCC4CC4)c2)C3)nc1 (centres undefined) and report it.
42%

----------
# Test system: COLO 205
# ASSAY_INFO: Antiproliferative activity against human COLO205 cells overexpressing Braf after 48 hrs by BrdU labeling assay
# Assay type: functional, cell-based
# CONDITION_SUMMARY: COLO 205, 48 h
RECORDED_ENDPOINT: pIC50
# pIC50 is unitless: minus log10 of the molar concentration; print number only

Return pIC50 (reported value) for this molecule: CC[C@@H](C)Nc1cc(C(=O)NC2CC3CCC(C2)N3c2ccc(C(=O)C3CC3)cn2)c(C)cc1C(N)=O (stereo partly specified)
7.94

----------
For each of the molecules below, state its half-life.
# ASSAY_INFO: Half life in rat at 2.5 mg/kg, iv
# Assay type: ADME, organism-based
# Set-up: dose 2.5 mg/kg, route intravenous
# CONDITION_SUMMARY: in vivo
Your answer is read as h, so omit the unit and give the number.

Could you please provide reported half-life for NC(=O)c1ccc(C(=O)NC2CC3CCC(C2)N3c2ccc(C(=O)C3CC3)cn2)cc1NCC1CC1 (centres undefined) ? Thanks!
22

Identify measured half-life associated with COc1cccc(C(=O)NC2CC3CCC(C2)N3c2ccc(C(=O)NCc3ccccc3)cn2)c1C (centres undefined)
0.72

State its half-life: CCC(CC)Nc1cc(C(=O)NC2CC3CCC(C2)N3c2ccc(C(=O)C3CC3)cn2)c(C)cc1C(N)=O (centres undefined)
1.8

Determine from records and report half-life for Cc1cc(C(N)=O)c(NC2CCCC2)cc1C(=O)NC1CC2CCC(C1)N2c1ccc(C(=O)C2CC2)cn1 (centres undefined)
1.1

Tell me measured half-life for NC(=O)c1ccc(C(=O)NC2CC3CCC(C2)N3c2ccc(C(=O)NC3CCCC3)cn2)cc1NCC1CC1 (centres undefined) please.
0.6

Give the value of half-life reported for the following: Cc1cc(C(N)=O)c(NC(C)C)cc1C(=O)NC1CC2CCC(C1)N2c1ccc(C(=O)C2CC2)cn1 (centres undefined)
1.5

Retrieve half-life measured for CC[C@H](C)Nc1cc(C(=O)NC2CC3CCC(C2)N3c2ccc(C(=O)C3CC3)cn2)c(C)cc1C(N)=O (some centres undefined) and print it.
1

Quote half-life reported for Cc1cc(C(N)=O)c(NCC2CC2)cc1C(=O)NC1CC2CCC(C1)N2c1ccc(C(=O)C2CC2)cn1 (centres undefined) please.
0.9

Annotate the molecule CC(=O)c1ccc(N2C3CCC2CC(NC(=O)c2ccc(C(N)=O)c(NCC4CC4)c2)C3)nc1 (centres undefined) with its measured half-life.
7

----------
# ASSAY_INFO: Clearance in iv dosed rat
# Assay type: ADME, organism-based
# CONDITION_SUMMARY: in vivo
RECORDED_ENDPOINT: clearance (L/h/kg)
Give the value, in units of L/h/kg, as a plain number.

Please indicate clearance recorded for C[C@H](NC(=O)c1ccc(N2C3CCC2CC(NC(=O)c2ccc(C(N)=O)c(NCC4CC4)c2)C3)nc1)c1ccc(N2CCN(C)CC2)cc1 (stereo partly drawn)
9.41

Tell me its clearance given COc1cccc(C(=O)NC2CC3CCC(C2)N3c2ccc(C(=O)NCc3ccc(N4CCN(C)CC4)cc3)cn2)c1C (stereo not drawn) as the entry.
6.75

Please report the measured clearance for COc1cccc(C(=O)NC2CC3CCC(C2)N3c2ccc(C(=O)N[C@@H](C)c3ccc(N4CCN(C)CC4)cc3)cn2)c1C (stereo partly drawn)
2.06

----------
# ASSAY_INFO: Plasma concentration in mouse xenografted with human NCI-N87 cells at 100 mg/kg administered QD for 3 days measured 8 hrs post-last dose
# Assay type: ADME, organism-based
# Set-up: dose 100 mg/kg
RECORDED_ENDPOINT: concentration at 8 h (nM)
Numeric only. Scale: nM

Report concentration at 8 h, nothing else, for this molecule: CC[C@@H](C)Nc1cc(C(=O)NC2CC3CCC(C2)N3c2ccc(C(=O)C3CC3)cn2)c(C)cc1C(N)=O (stereo partly specified)
2260

----------
# ASSAY_INFO: Apparent permeability across MDCK cells
# Assay type: ADME, cell-based, Canis lupus familiaris
# CONDITION_SUMMARY: dog
Consider the reported Papp of an entry and match it to a band in lower band (below 3 ×10⁻⁶ cm/s), central band (3 ×10⁻⁶ cm/s to below 10 ×10⁻⁶ cm/s), upper band (10 ×10⁻⁶ cm/s or more)

State the class of the molecule shown: COc1cccc(C(=O)NC2CC3CCC(C2)N3c2ccc(C(=O)NCc3ccc(N4CCN(C)CC4)cc3)cn2)c1C (stereo unspecified)
central band

Textbook exercise: identify the category of the molecule given here, COc1cccc(C(=O)NC2CC3CCC(C2)N3c2ccc(C(=O)N[C@@H](C)c3ccccc3)cn2)c1C (stereo partly specified) , according to its measured value.
upper band

Place this molecule in its band: C[C@H](NC(=O)c1ccc(N2C3CCC2CC(NC(=O)c2ccc(C(N)=O)c(NCC4CC4)c2)C3)nc1)c1ccc(N2CCN(C)CC2)cc1 (stereo partly specified)
lower band

Classify this molecule: Cc1cc(C(N)=O)c(NCC2CC2)cc1C(=O)NC1CC2CCC(C1)N2c1ccc(C(=O)C2CC2)cn1 (stereo unspecified)
upper band

# bin label for COc1cccc(C(=O)NC2CC3CCC(C2)N3c2ccc(C(=O)N[C@@H](C)c3ccc(N4CCN(C)CC4)cc3)cn2)c1C (stereo partly specified)
central band

Input NC(=O)c1ccc(C(=O)NC2CC3CCC(C2)N3c2ccc(C(=O)NC3CCCC3)cn2)cc1NCC1CC1 (stereo unspecified) ; output its category
central band

Assign a bin to CCC(CC)Nc1cc(C(=O)NC2CC3CCC(C2)N3c2ccc(C(=O)C3CC3)cn2)ccc1C(N)=O (stereo unspecified)
upper band

Lab note: which band did NC(=O)c1ccc(C(=O)NC2CC3CCC(C2)N3c2ccc(C(=O)NCc3ccccc3)cn2)cc1 (stereo unspecified) land in?
lower band

Record Cc1cc(C(N)=O)c(NC(C)C)cc1C(=O)NC1CC2CCC(C1)N2c1ccc(C(=O)C2CC2)cn1 (stereo unspecified) — which class?
upper band

----------
# SUBJECT_OF_TEST: Heat shock protein HSP90 (Homo sapiens, UniProt P07900+P08238)
# ASSAY_INFO: Inhibition of Hsp90 in human NCI-N87 cells assessed as Her2 degradation after 24 hrs by Western blot analysis
# Format: cell-based
Quick rule for you: IC50 under 400 nM gets 1, anything else gets 0.

Hello, I'm reviewing records and need to know if IC50 of CC(=O)c1ccc(N2C3CCC2CC(NC(=O)c2ccc(C(N)=O)c(NCC4CC4)c2)C3)nc1 (stereo not given) is below 400 nM. Could you check?
1

IC50 under 400 nM? Item: CCCNc1cc(C(=O)NC2CC3CCC(C2)N3c2ccc(C(=O)C3CC3)cn2)c(C)cc1C(N)=O (stereo not given)
0

IC50 strictly < 400 nM for this molecule? Cc1cc(C(N)=O)c(NC2CCCC2)cc1C(=O)NC1CC2CCC(C1)N2c1ccc(C(=O)C2CC2)cn1 (stereo not given)
1

Lab note: confirm whether the reported IC50 for this molecule is below 400 nM, equality not counting. molecule: NC(=O)c1ccc(C(=O)NC2CC3CCC(C2)N3c2ccc(C(=O)C3CC3)cn2)cc1NCC1CC1 (stereo not given)
0

Given the entry CC(C)C(=O)c1ccc(N2C3CCC2CC(NC(=O)c2ccc(C(N)=O)c(NCC4CC4)c2)C3)nc1 (stereo not given) , would its reported IC50 be below 400 nM?
0

I wonder whether CCC(CC)Nc1cc(C(=O)NC2CC3CCC(C2)N3c2ccc(C(=O)C3CC3)cn2)ccc1C(N)=O (stereo not given) has IC50 below 400 nM. Can you tell?
1

State whether 400 nM exceeds IC50 recorded for CCNC(=O)c1ccc(N2C3CCC2CC(NC(=O)c2ccc(C(N)=O)c(NCC4CC4)c2)C3)nc1 (stereo not given) .
0

API: query returns whether the molecule falls strictly under 400 nM in IC50. Query: CC[C@@H](C)Nc1cc(C(=O)NC2CC3CCC(C2)N3c2ccc(C(=O)C3CC3)cn2)c(C)cc1C(N)=O (stereo not given in full)
1

Could you please tell me whether IC50 recorded for Cc1cc(C(N)=O)c(NCC2CC2)cc1C(=O)NC1CC2CCC(C1)N2c1ccc(C(=O)C2CC2)cn1 (stereo not given) is less than 400 nM?
1

Hi there! Is IC50 for NC(=O)c1ccc(C(=O)NC2CC3CCC(C2)N3c2ccc(C(=O)NC3CCCC3)cn2)cc1NCC1CC1 (stereo not given) below 400 nM, do you know?
1

Determine whether this molecule shows IC50 lower than 400 nM (ties excluded): Cc1cc(C(N)=O)c(NC(C)C)cc1C(=O)NC1CC2CCC(C1)N2c1ccc(C(=O)C2CC2)cn1 (stereo not given)
1

Does the reported IC50 of the following molecule sit strictly below 400 nM? CCC(CC)Nc1cc(C(=O)NC2CC3CCC(C2)N3c2ccc(C(C)=O)cn2)ccc1C(N)=O (stereo not given)
1

Determine if CCC(CC)Nc1cc(C(=O)NC2CC3CCC(C2)N3c2ccc(C(=O)C3CC3)cn2)c(C)cc1C(N)=O (stereo not given) shows IC50 strictly lower than 400 nM.
1

Consider CCC(CC)Nc1cc(C(=O)NC2CC3CCC(C2)N3c2ccc(C(C)=O)cn2)c(C)cc1C(N)=O (stereo not given) . Does its IC50 lie strictly below 400 nM?
1

For this molecule, is IC50 lower than 400 nM? CC[C@H](C)Nc1cc(C(=O)NC2CC3CCC(C2)N3c2ccc(C(=O)C3CC3)cn2)c(C)cc1C(N)=O (stereo not given in full)
1
